# target system: 5'-nucleotidase (Rattus norvegicus)
# assay text: Inhibition of rat ecto-5'-nucleotidase expressed in Sf9 cells at 1 mM by capillary electrophoresis method
readout name: inhibition (%)
Give bare numbers, in %.

# annotated cases, reported inhibition shown
compound structure string	value observed
Nc1c(S(=O)(=O)O)cc(Nc2cccc(C(=O)O)c2)c2c1C(=O)c1ccccc1C2=O	26
Cc1cccc(Nc2cc(S(=O)(=O)O)c(N)c3c2C(=O)c2ccccc2C3=O)c1C	39
CCOc1ccccc1Nc1cc(S(=O)(=O)O)c(N)c2c1C(=O)c1ccccc1C2=O	56
Nc1c(S(=O)(=O)O)cc(Nc2cc(Cl)ccc2C(=O)O)c2c1C(=O)c1ccccc1C2=O	27
Nc1c(S(=O)(=O)O)cc(NCCc2ccc(Cl)cc2)c2c1C(=O)c1ccccc1C2=O	62

Provide inhibition values for the following items, in order.
1. Cc1ccc(C)c(Nc2cc(S(=O)(=O)O)c(N)c3c2C(=O)c2ccccc2C3=O)c1
2. Nc1c(S(=O)(=O)O)cc(Nc2ccc(Nc3ccccc3)cc2)c2c1C(=O)c1ccccc1C2=O
3. Nc1cccc(Nc2cc(S(=O)(=O)O)c(N)c3c2C(=O)c2ccccc2C3=O)c1

1: 26; 2: 37; 3: 31

What value of inhibition has been reported for the following molecule? `COc1ccccc1Nc1cc(S(=O)(=O)O)c(N)c2c1C(=O)c1ccccc1C2=O`
9

----------
# target system: P2Y purinoceptor 4 (Homo sapiens)
# Sequence (P51582 whole entry): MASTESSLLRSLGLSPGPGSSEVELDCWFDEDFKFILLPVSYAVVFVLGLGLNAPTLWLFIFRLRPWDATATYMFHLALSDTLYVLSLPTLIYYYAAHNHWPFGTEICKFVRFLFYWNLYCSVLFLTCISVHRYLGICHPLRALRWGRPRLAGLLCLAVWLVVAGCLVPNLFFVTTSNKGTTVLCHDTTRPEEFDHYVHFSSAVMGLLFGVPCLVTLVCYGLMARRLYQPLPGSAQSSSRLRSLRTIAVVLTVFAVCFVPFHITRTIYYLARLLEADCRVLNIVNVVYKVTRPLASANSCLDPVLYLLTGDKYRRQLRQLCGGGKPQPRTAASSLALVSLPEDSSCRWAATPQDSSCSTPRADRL
# assay text: Antagonist activity at human P2Y4 receptor expressed in astrocytoma cells assessed as inhibition of intracellular calcium mobilization
readout name: IC50

compound structure string	target system	IC50
Nc1c(S(=O)(=O)O)cc(Nc2ccc(Nc3nc(Cl)nc(Nc4cccc(S(=O)(=O)O)c4)n3)c(S(=O)(=O)O)c2)c2c1C(=O)c1ccccc1C2=O	P2Y purinoceptor 4 (Homo sapiens)	9.79 µM
Nc1c(S(=O)(=O)O)cc(Nc2ccc(O)cc2)c2c1C(=O)c1ccccc1C2=O	P2Y purinoceptor 4 (Homo sapiens)	2.37 µM
Nc1c(S(=O)(=O)O)cc(Nc2ccc(F)cc2C(=O)O)c2c1C(=O)c1ccccc1C2=O	P2Y purinoceptor 4 (Homo sapiens)	> 10 µM
Nc1c(S(=O)(=O)O)cc(Nc2ccccc2)c2c1C(=O)c1ccccc1C2=O	P2Y purinoceptor 4 (Homo sapiens)	25.8 µM

Query compound follows.
What value of IC50 has been reported for the following compound? `Nc1c(S(=O)(=O)O)cc(Nc2ccc3cc4ccccc4cc3c2)c2c1C(=O)c1ccccc1C2=O`
> 10 µM

Cited source: ChEMBL document CHEMBL1157570
